biological target: UniProt Q92731; assay: Displacement of fluorescein-labeled estradiol from human recombinant ERbeta at 0.2 uM by fluorescence polarization assay
Sequence (Q92731 whole entry): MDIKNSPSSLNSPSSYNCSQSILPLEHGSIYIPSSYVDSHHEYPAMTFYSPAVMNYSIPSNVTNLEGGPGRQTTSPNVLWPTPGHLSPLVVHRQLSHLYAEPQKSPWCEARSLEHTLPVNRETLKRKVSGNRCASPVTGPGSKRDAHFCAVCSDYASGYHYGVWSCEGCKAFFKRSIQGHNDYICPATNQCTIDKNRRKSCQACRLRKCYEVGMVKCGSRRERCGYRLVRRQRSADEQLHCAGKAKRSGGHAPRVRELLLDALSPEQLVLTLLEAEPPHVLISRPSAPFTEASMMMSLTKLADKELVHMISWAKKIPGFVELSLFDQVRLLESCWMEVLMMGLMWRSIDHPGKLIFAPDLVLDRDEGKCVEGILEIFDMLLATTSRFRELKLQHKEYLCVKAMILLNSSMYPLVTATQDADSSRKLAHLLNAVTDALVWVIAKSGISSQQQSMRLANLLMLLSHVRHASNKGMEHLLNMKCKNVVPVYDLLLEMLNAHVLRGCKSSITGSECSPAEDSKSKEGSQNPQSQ
RESULT TYPE: Activity (%)
Just the number in %, nothing appended.

Worked examples, 10 molecules total:
CCC[C@@H]1C[C@@]1(CCC)[C@@H](NP(=O)(c1ccccc1)c1ccccc1)c1ccc(Cl)cc1 : 2
CCCC[C@@H]1C[C@H]1[C@@H](NC(=O)C(C)(C)C)c1ccc(C(F)(F)F)cc1 : -2
CCC[C@@H]1C[C@@]1(CCC)[C@@H](NC(=O)c1ccco1)c1ccc(C(Cl)(Cl)Cl)cc1 : -2
C=C(CCCC)[C@@H](NC(=O)c1ccc(-c2ccccc2)cc1)c1ccccc1 : 0
CCC/C=C(\CCC)[C@@H](NC(=O)CCc1ccccc1)c1ccc(C(F)(F)F)cc1 : 8
CCC/C=C(\CCC)[C@@H](NC(=O)Cc1ccccc1)c1ccc(C(=O)OC)cc1 : -11
CCCC[C@@H]1C[C@H]1[C@@H](NC(=O)c1ccccc1)c1ccc(C(F)(F)F)cc1 : -9
CCC[C@@H]1C[C@@]1(CCC)[C@@H](NS(=O)(=O)c1cccc2cccnc12)c1ccc(-c2ccccc2)cc1 : 15
CCC/C=C(\CCC)[C@@H](NS(=O)(=O)c1ccccc1)c1ccc(C(F)(F)F)cc1 : 13
CCC/C=C(\CCC)[C@@H](NS(=O)(=O)c1ccc(C(F)(F)F)cc1)c1ccc(C(=O)OC)cc1 : 15

Prompt line: Provide only the value of recorded Activity for CCCC[C@@H]1C[C@H]1[C@@H](NC(=O)c1ccccc1)c1ccc(-c2ccccc2)cc1
Response line: 26

Prompt line: Provide only the value of recorded Activity for CCC/C=C(\CCC)[C@@H](NS(=O)(=O)c1cccc2cccnc12)c1ccc(C(=O)OC)cc1
Response line: 7

Prompt line: Provide only the value of recorded Activity for CCCCCC/C=C(\C)[C@@H](NC(=O)c1ccc(C(F)(F)F)cc1)c1ccc(-c2ccccc2)cc1
Response line: -7

Prompt line: Provide only the value of recorded Activity for CCCC[C@@H]1C[C@H]1C(NC(=O)c1ccco1)c1ccc(C(=O)OC)cc1 (single isomer, unassigned)
Response line: 8

Prompt line: Provide only the value of recorded Activity for CCCC[C@@H]1C[C@H]1[C@@H](NC(=O)c1ccco1)c1ccc(C(F)(F)F)cc1
Response line: 0

Prompt line: Provide only the value of recorded Activity for CCC/C=C(\CCC)[C@@H](NC(=O)c1ccccc1)c1ccccc1
Response line: 8

Prompt line: Provide only the value of recorded Activity for CCC/C=C(\CCC)[C@@H](NS(=O)(=O)c1ccccc1Cl)c1ccc(C(=O)OC)cc1
Response line: 15

Prompt line: Provide only the value of recorded Activity for CCC/C=C(\CCC)[C@@H](NC(=O)c1ccccc1)c1ccc(C(=O)OC)cc1
Response line: 1
